target: T1, recombinant soluble CD30 (sCD30) produced in E. coli (human)
T1 construct: also called soluble CD30 made in E. coli; extracellular domain of CD30 with His-tag
T1 chain: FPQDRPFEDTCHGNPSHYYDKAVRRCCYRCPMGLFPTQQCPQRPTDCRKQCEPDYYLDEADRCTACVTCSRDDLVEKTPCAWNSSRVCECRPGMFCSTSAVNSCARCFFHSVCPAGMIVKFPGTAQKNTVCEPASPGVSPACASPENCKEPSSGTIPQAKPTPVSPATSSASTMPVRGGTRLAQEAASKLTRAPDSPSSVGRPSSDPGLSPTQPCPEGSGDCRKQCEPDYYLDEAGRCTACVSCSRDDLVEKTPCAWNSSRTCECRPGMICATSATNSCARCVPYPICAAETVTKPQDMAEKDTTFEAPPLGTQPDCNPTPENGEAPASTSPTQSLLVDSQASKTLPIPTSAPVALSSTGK
testSummary: indirect ELISA, sCD30 coated
Reported titer in ELISA by item:
Please respond with the number in mL/µg and leave the unit unwritten.

Below are worked cases with known answers.
binder: T25 MAb (antibody, V domains shown) VH: QVTLKESGPGILQPSQTLSLTCSFSGFSLNTSGVGVGWIRQPSGKGLEWLAHIWWDDDERYNPVLKSRLTISKDTSSNQVFLKIANVDTADSATYYCVRSMVAWFPYWGRGTLVTVSA VL: DIVMSQSPSSLAVSVGEKFTVNCKSSQSLLYSSNQKNFLAWYQQKPGQSPKLLIYWASTRESGVPDRFIGSGSGTDFTLTISSVKAEDLAVYYCQQHYRYPWTFGGGTKLEIKR
titer in ELISA / mL/µg: 135
//
binder: T6 MAb (antibody, V domains shown) VH: QVQLKESGPGLVTPSQSLSITCTVSGFSLSKYSIHWVRQPPGRGLEWLGMIWGVENTDYNSALKSRLSISKDNSKSQVFLKMNSLQSDDTAMYYCARKDLGLYGMNYWGQGISVTVSA VL: DIVMTQSQKFMSTSVGDRVSVTCKASQNVGTNVAWYQQKPGQSPKALFYSASYRYSGVPDRFIGSGSGTVFTLTISNVQSEDLAEYFCQQYNTYPLTFGSGTKLEIER
titer in ELISA / mL/µg: 74.1
//
binder: T13 MAb (antibody, V domains shown) VH: QVQLQQSGAELAKPGASVKMSCKASGYTFTTYWMHWVKQRPGQGLEWIGYINPSTGYTDYNEKFKDKATLTADKSSSTAYMQLSSLTSEDSAVYYCVRRGSYDGNPFAYWGQGTLVSVSA VL: DIVMTQSHKFMSTSVGDRVTITCKASQDVSTAVAWYQQKPGHSPKLLIYWASTRHTGVPDRFTGSGSGTDYTLTISSVQVEDLALYYCQQHYSTPFTFGSGTKLEIKR
titer in ELISA / mL/µg: 87.7

Alright, here's another binder for you.
Requested field: titer in ELISA. Item: T24 MAb (antibody, V domains shown) VH: QVQLQQPGAELVRPGASVKLSCKASGYSFTSYWIDWVKQRPGQGLEWIGNIYPSNAYTNYNQKFKDKATLTVDKSSSTAYMQLSSPTSEDSAVYYCTSVLDYFYAMDYWGQGTSVTVSS VL: DIQMTQTTSSLSASLGDRVTISCRASQDISNYLNWYQQKPDGTVKLLIYYTSRLHSGVPSRFSGSGSGTDYSLTISNLEQEDIATYFCQQVNTLPRTFGGGTKLEIKR
102
